This section presents compounds with their documented AUC(0-inf) values.
test protocol: Pharmacokinetics in mice, single per os application, HPLC of plasma
Type: in vivo
setup conditions: mouse, plasma, po; mice, single intragastric 100 mg/kg; read-out: AUC0-∞ (area under curve)
result type: AUC(0-inf) (ng·h/mL)

{"columns": ["mol smiles", "result value"],
 "data": [
  ["Nc1nc(-c2ccccc2)nc2[nH]nc(Nc3ccc(C(F)(F)F)cc3)c12", 9600],
  ["Nc1nc(-c2ccccc2)nc2[nH]nc(Nc3ccccc3)c12", 2730],
  ["Nc1nc(-c2ccccc2)nc2[nH]nc(Nc3ccc(Cl)cc3)c12", 1090]
]}

* * *

test protocol: Pharmacokinetics in mice, single per os application, HPLC of plasma
Format: in vivo
setup conditions: mouse, in vivo, po; mice, single intragastric 100 mg/kg; read-out: T1/2 (half life) (converted)

{"columns": ["mol smiles", "half-life [h]"],
 "data": [
  ["Nc1nc(-c2ccccc2)nc2[nH]nc(Nc3ccc(C(F)(F)F)cc3)c12", 3.54]
]}

* * *

{"columns": ["mol smiles", "melting point"],
 "data": [
  ["Nc1nc(-c2ccccc2)nc2[nH]nc(Nc3ccc(F)cc3)c12", "262 to 263 °C"],
  ["Nc1nc(-c2ccccc2C(F)(F)F)nc2[nH]nc(Nc3ccc(Cl)cc3)c12", "271 to 273 °C"],
  ["Nc1nc(-c2cc(C(F)(F)F)cc(C(F)(F)F)c2)nc2[nH]nc(Nc3ccc(Cl)cc3)c12", "272 to 274 °C"],
  ["Nc1nc(-c2cccc(C(F)(F)F)c2)nc2[nH]nc(Nc3ccccc3)c12", "230 to 232 °C"]
]}

* * *

A collection of compounds and their measured Tmax
test protocol: Pharmacokinetics in mice, single per os application, HPLC of plasma
Type: in vivo
setup conditions: mouse, plasma, po; mice, single intragastric 100 mg/kg; read-out: Tmax (time to reach the maximum concentration in the blood)

{"columns": ["mol smiles", "Tmax"],
 "data": [
  ["Nc1nc(-c2ccccc2)nc2[nH]nc(Nc3ccc(C(F)(F)F)cc3)c12", "3 h"],
  ["Nc1nc(-c2ccccc2)nc2[nH]nc(Nc3ccc(Cl)cc3)c12", "0.5 h"],
  ["Nc1nc(-c2ccccc2)nc2[nH]nc(Nc3ccccc3)c12", "1 h"]
]}

* * *

test protocol: Pharmacokinetics in mice, single per os application, HPLC of plasma
Format: in vivo
setup conditions: mouse, plasma, po; mice, single intragastric 100 mg/kg; read-out: AUC0-t (area under curve)

{"columns": ["mol smiles", "AUC(0-t) [ng·h/mL]"],
 "data": [
  ["Nc1nc(-c2ccccc2)nc2[nH]nc(Nc3ccccc3)c12", 2350],
  ["Nc1nc(-c2ccccc2)nc2[nH]nc(Nc3ccc(Cl)cc3)c12", 1090]
]}

* * *

test protocol: Pharmacokinetics in mice, single per os application, HPLC of plasma
Type: in vivo
setup conditions: mouse, plasma, po; mice, single intragastric 100 mg/kg; read-out: MRT (mean residence time)
# MRT per record follows

{"columns": ["mol smiles", "MRT / h"],
 "data": [
  ["Nc1nc(-c2ccccc2)nc2[nH]nc(Nc3ccc(Cl)cc3)c12", 2.44],
  ["Nc1nc(-c2ccccc2)nc2[nH]nc(Nc3ccccc3)c12", 2.14]
]}

These measurements were taken from patent US9790225B2.
